experimental-system: pSTAT6 (pY641-STAT6) (Homo sapiens)
Sequence (P42226 whole entry): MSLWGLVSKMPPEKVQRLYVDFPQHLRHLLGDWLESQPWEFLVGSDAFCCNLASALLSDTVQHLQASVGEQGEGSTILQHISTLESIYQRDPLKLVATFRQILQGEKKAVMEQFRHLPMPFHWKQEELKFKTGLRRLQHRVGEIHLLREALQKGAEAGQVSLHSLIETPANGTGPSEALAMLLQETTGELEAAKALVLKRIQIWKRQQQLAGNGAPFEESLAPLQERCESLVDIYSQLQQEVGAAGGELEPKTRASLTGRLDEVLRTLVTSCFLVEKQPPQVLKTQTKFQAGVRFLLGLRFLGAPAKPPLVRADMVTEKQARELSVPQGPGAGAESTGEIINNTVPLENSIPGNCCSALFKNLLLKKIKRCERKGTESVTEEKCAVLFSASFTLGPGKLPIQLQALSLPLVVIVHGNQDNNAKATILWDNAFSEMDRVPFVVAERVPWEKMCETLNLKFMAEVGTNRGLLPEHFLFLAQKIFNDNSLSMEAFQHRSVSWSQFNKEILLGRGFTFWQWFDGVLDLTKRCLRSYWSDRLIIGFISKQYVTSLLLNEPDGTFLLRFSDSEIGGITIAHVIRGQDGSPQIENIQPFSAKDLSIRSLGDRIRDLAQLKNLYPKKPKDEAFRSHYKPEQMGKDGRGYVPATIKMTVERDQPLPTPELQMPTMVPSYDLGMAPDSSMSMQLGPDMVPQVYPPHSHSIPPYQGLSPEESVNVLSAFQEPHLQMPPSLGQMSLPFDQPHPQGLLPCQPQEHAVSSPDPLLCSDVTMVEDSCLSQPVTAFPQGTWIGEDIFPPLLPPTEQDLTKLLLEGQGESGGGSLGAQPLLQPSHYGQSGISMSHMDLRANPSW
method-description: MSD-pSTAT-PBMC Assay (pSTAT6, IL-4 stimulated)
measurement-setup: compound 3 hrs, then 1 ng/mL IL-4 for 10 min
Give IC50 for every item shown.

Worked set:
CC(C)(C)C(=O)SCCOP(=O)(Cc1ccc2sc(C(=O)N[C@H]3C[C@H]4C[C@H]4C[C@H]4CC[C@@H](C(=O)N5CC(c6cccnc6)C5)N4C3=O)cc2c1)OCCSC(=O)C(C)(C)C	> 3 µM
CC(C)(C)OC(=O)OCOP(=O)(OCOC(=O)OC(C)(C)C)C(F)(F)c1ccc2sc(C(=O)N[C@H]3C[C@@H]4C[C@@H]4C[C@H]4CC[C@@H](C(=O)N5CC(C(=O)N6CCOCC6)C5)N4C3=O)cc2c1	> 3 µM

Value sought for every listed compound: IC50.
1. CC(C)(C)C(=O)OCOP(=O)(OCOC(=O)C(C)(C)C)C(F)(F)c1ccc2sc(C(=O)N[C@H]3C[C@@H]4C[C@@H]4C[C@H]4CC[C@@H](C(=O)N5CC(n6ccnc6)C5)N4C3=O)cc2c1
2. CC(C)(C)C(=O)SCCOP(=O)(OCCSC(=O)C(C)(C)C)C(F)(F)c1ccc2sc(C(=O)NC3CC4CC4CC4CCC(C(=O)N5CC(n6ccnc6)C5)N4C3=O)cc2c1 (centres unmarked)
3. CCCC(=O)SCCOP(=O)(OCCSC(=O)CCC)C(F)(F)c1ccc2sc(C(=O)N[C@H]3C[C@@H]4C[C@@H]4C[C@H]4CC[C@@H](C(=O)N5CC(n6ccnc6)C5)N4C3=O)cc2c1

Reply:
> 3 µM
> 3 µM
0.1 to 1 µM
